This collection of values is drawn from the NIST ThermoML archive (doi:10.1021/je700282w).

assay: activity coefficient (dimensionless); of the first substance listed, at infinite dilution; xn = mol fraction of the nth substance listed; conditions: 333.15 K; 101 kPa; Liquid; Chromatography; x1 = 0
property: activity coefficient

CCCCCCC [heptane] + CCCCn1cc[n+](C)c1.O=S(=O)([O-])C(F)(F)F : 46
CC1CCCCC1 [methylcyclohexane] + CCCCn1cc[n+](C)c1.O=S(=O)([O-])C(F)(F)F : 25.4
C1=CCCCC1 [cyclohexene] + CCCCn1cc[n+](C)c1.O=S(=O)([O-])C(F)(F)F : 9.69
CC(C)CC(C)(C)C [2,2,4-trimethylpentane] + CCCCn1cc[n+](C)c1.O=S(=O)([O-])C(F)(F)F : 47.9
C1CCCCC1 [cyclohexane] + CCCCn1cc[n+](C)c1.O=S(=O)([O-])C(F)(F)F : 18.1

1: CCc1ccccc1 [ethylbenzene] + CCCCn1cc[n+](C)c1.O=S(=O)([O-])C(F)(F)F
2: CCCCCC [hexane] + CCCCn1cc[n+](C)c1.O=S(=O)([O-])C(F)(F)F
Data request: From the recorded data, which exceeds the other in activity coefficient: 1 or 2 ? I would appreciate it if you answered with the label of your choice.
Data returned: 2
(2: 32.1, 1: 4.52)

A: CCCCCCCCC [nonane] + CCCCn1cc[n+](C)c1.O=S(=O)([O-])C(F)(F)F
B: C=Cc1ccccc1 [styrene] + CCCCn1cc[n+](C)c1.O=S(=O)([O-])C(F)(F)F
Data request: Would you mind telling me which has the lower recorded activity coefficient between A and B ? I would appreciate it if you answered with the label of your choice.
Data returned: B
(B: 2.51, A: 93.3)

###

test: activity coefficient (dimensionless); of the first substance listed, at infinite dilution; xn = mol fraction of the nth substance listed; details: 303.15 K; 101 kPa; Liquid; Chromatography; x1 = 0
property: activity coefficient

Answered examples (2):
C=Cc1ccccc1 [styrene] + CCCCn1cc[n+](C)c1.O=S(=O)([O-])C(F)(F)F : 2.46
CCc1ccccc1 [ethylbenzene] + CCCCn1cc[n+](C)c1.O=S(=O)([O-])C(F)(F)F : 4.62

A: C1CCCCC1 [cyclohexane] + CCCCn1cc[n+](C)c1.O=S(=O)([O-])C(F)(F)F
B: CCCCCCCC [octane] + CCCCn1cc[n+](C)c1.O=S(=O)([O-])C(F)(F)F
Data request: Would you mind telling me which has the lower recorded activity coefficient between A and B ? I would appreciate it if you answered with the label of your choice.
Data returned: A
(A: 21.8, B: 87.2)

###

assay: activity coefficient (dimensionless); of the first substance listed, at infinite dilution; xn = mol fraction of the nth substance listed; details: 323.15 K; 101 kPa; Liquid; Chromatography; x1 = 0
property: activity coefficient

Answered examples (6):
Cc1ccccc1 [toluene] + CCCCn1cc[n+](C)c1.O=S(=O)([O-])C(F)(F)F : 2.78
C=Cc1ccccc1 [styrene] + CCCCn1cc[n+](C)c1.O=S(=O)([O-])C(F)(F)F : 2.49
C1=CCCCC1 [cyclohexene] + CCCCn1cc[n+](C)c1.O=S(=O)([O-])C(F)(F)F : 10.1
Cc1ccccc1C [1,2-dimethylbenzene] + CCCCn1cc[n+](C)c1.O=S(=O)([O-])C(F)(F)F : 3.68
CC(C)CC(C)(C)C [2,2,4-trimethylpentane] + CCCCn1cc[n+](C)c1.O=S(=O)([O-])C(F)(F)F : 50.9
CCc1ccccc1 [ethylbenzene] + CCCCn1cc[n+](C)c1.O=S(=O)([O-])C(F)(F)F : 4.54

I: CCCCCC [hexane] + CCCCn1cc[n+](C)c1.O=S(=O)([O-])C(F)(F)F
II: c1ccccc1 [benzene] + CCCCn1cc[n+](C)c1.O=S(=O)([O-])C(F)(F)F
Data request: From the recorded data, which exceeds the other in activity coefficient: I or II ? I would appreciate it if you answered with the label of your choice.
Data returned: I

###

assay: activity coefficient (dimensionless); of the first substance listed, at infinite dilution; xn = mol fraction of the nth substance listed; settings: 313.15 K; 101 kPa; Liquid; Chromatography; x1 = 0
property: activity coefficient

P: C1CCCCC1 [cyclohexane] + CCCCn1cc[n+](C)c1.O=S(=O)([O-])C(F)(F)F
Q: C1=CCCCC1 [cyclohexene] + CCCCn1cc[n+](C)c1.O=S(=O)([O-])C(F)(F)F
Data request: Would you mind telling me which has the lower recorded activity coefficient between P and Q ? I would appreciate it if you answered with the label of your choice.
Data returned: Q
(Q: 10.4, P: 20.5)

A: CCCCCCCCCC [decane] + CCCCn1cc[n+](C)c1.O=S(=O)([O-])C(F)(F)F
B: c1ccccc1 [benzene] + CCCCn1cc[n+](C)c1.O=S(=O)([O-])C(F)(F)F
Data request: Would you mind telling me which has the lower recorded activity coefficient between A and B ? I would appreciate it if you answered with the label of your choice.
Data returned: B
(B: 1.82, A: 709)

###

assay: activity coefficient (dimensionless); of the first substance listed, at infinite dilution; xn = mol fraction of the nth substance listed; details: 333.15 K; 101 kPa; Liquid; Chromatography; x1 = 0
property: activity coefficient

Cc1cccc(C)c1 [1,3-dimethylbenzene] + CCCCn1cc[n+](C)c1.O=S(=O)([O-])C(F)(F)F : 4.47

1: CCCCCCCC [octane] + CCCCn1cc[n+](C)c1.O=S(=O)([O-])C(F)(F)F
2: CCCCCCCCCC [decane] + CCCCn1cc[n+](C)c1.O=S(=O)([O-])C(F)(F)F
Data request: From the recorded data, which exceeds the other in activity coefficient: 1 or 2 ? I would appreciate it if you answered with the label of your choice.
Data returned: 2
(2: 483, 1: 68.3)

A: c1ccccc1 [benzene] + CCCCn1cc[n+](C)c1.O=S(=O)([O-])C(F)(F)F
B: CCCCC [pentane] + CCCCn1cc[n+](C)c1.O=S(=O)([O-])C(F)(F)F
Data request: From the recorded data, which exceeds the other in activity coefficient: A or B ? I would appreciate it if you answered with the label of your choice.
Data returned: B

###

experiment: activity coefficient (dimensionless); of the first substance listed, at infinite dilution; xn = mol fraction of the nth substance listed; conditions: 303.15 K; 101 kPa; Liquid; Chromatography; x1 = 0
property: activity coefficient

A: CCCCCC [hexane] + CCCCn1cc[n+](C)c1.O=S(=O)([O-])C(F)(F)F
B: CC(C)CC(C)(C)C [2,2,4-trimethylpentane] + CCCCn1cc[n+](C)c1.O=S(=O)([O-])C(F)(F)F
Data request: From the recorded data, which exceeds the other in activity coefficient: A or B ? I would appreciate it if you answered with the label of your choice.
Data returned: B
(B: 57, A: 37.8)

###

experiment: activity coefficient (dimensionless); of the first substance listed, at infinite dilution; xn = mol fraction of the nth substance listed; conditions: 353.15 K; 101 kPa; Liquid; Chromatography; x1 = 0
property: activity coefficient

c1ccccc1 [benzene] + CCCCn1cc[n+](C)c1.O=S(=O)([O-])C(F)(F)F : 1.87

I: CC1CCCCC1 [methylcyclohexane] + CCCCn1cc[n+](C)c1.O=S(=O)([O-])C(F)(F)F
II: C1=CCCCC1 [cyclohexene] + CCCCn1cc[n+](C)c1.O=S(=O)([O-])C(F)(F)F
III: CCCCCCC [heptane] + CCCCn1cc[n+](C)c1.O=S(=O)([O-])C(F)(F)F
IV: CCCCCCCC [octane] + CCCCn1cc[n+](C)c1.O=S(=O)([O-])C(F)(F)F
V: CCCCCCCCCC [decane] + CCCCn1cc[n+](C)c1.O=S(=O)([O-])C(F)(F)F
Data request: Hey, quick one: sort these by activity coefficient, low to high? Answer by listing the labels in the order asked for.
Data returned: II, I, III, IV, V
(II: 9.15, I: 22.9, III: 41.1, IV: 60.3, V: 348)

###

test: activity coefficient (dimensionless); of the first substance listed, at infinite dilution; xn = mol fraction of the nth substance listed; conditions: 313.15 K; 101 kPa; Liquid; Chromatography; x1 = 0
property: activity coefficient

Answered examples (3):
CCCCCCCCC [nonane] + CCCCn1cc[n+](C)c1.O=S(=O)([O-])C(F)(F)F : 111
Cc1ccc(C)cc1 [1,4-dimethylbenzene] + CCCCn1cc[n+](C)c1.O=S(=O)([O-])C(F)(F)F : 4.32
CCCCCCC [heptane] + CCCCn1cc[n+](C)c1.O=S(=O)([O-])C(F)(F)F : 51.6

P: CC(C)CC(C)(C)C [2,2,4-trimethylpentane] + CCCCn1cc[n+](C)c1.O=S(=O)([O-])C(F)(F)F
Q: CCCCCCCC [octane] + CCCCn1cc[n+](C)c1.O=S(=O)([O-])C(F)(F)F
R: CC1CCCCC1 [methylcyclohexane] + CCCCn1cc[n+](C)c1.O=S(=O)([O-])C(F)(F)F
S: C=Cc1ccccc1 [styrene] + CCCCn1cc[n+](C)c1.O=S(=O)([O-])C(F)(F)F
T: CCc1ccccc1 [ethylbenzene] + CCCCn1cc[n+](C)c1.O=S(=O)([O-])C(F)(F)F
Data request: Hey, quick one: sort these by activity coefficient, low to high? Answer by listing the labels in the order asked for.
Data returned: S, T, R, P, Q
(S: 2.48, T: 4.57, R: 28.5, P: 52.9, Q: 79.9)
